- Tested on: MV4-11
- MEASUREMENT_SETUP: 72 h
IC50 (cell viability) reference
MEASURED_ATTRIBUTE: IC50 (cell viability)

{"columns": ["MOLECULE", "SYSTEM", "MEASURED"],
 "data": [
  ["Cc1nc(-c2ccccc2)sc1C(=O)Nc1ccc(S(N)(=O)=O)cc1", "MV4-11", "> 10 µM"],
  ["CCCc1nc(C)c2c(=O)nc(-c3cc(S(=O)(=O)N4CCN(CC)CC4)ccc3OCC)[nH]n12", "MV4-11", "> 10 µM"],
  ["CN(CCOc1ccc(Cc2sc(O)nc2O)cc1)c1ccccn1", "MV4-11", "> 10 µM"],
  ["O=c1cc(-c2ccccc2)oc2c1ccc1ccccc12", "MV4-11", "> 10 µM"],
  ["CCN(CC)C(=S)SSC(=S)N(CC)CC", "MV4-11", "7.02 µM"],
  ["O=C([O-])CC(O)(C(=O)[O-])C(O)C(=O)[O-].[K+].[K+].[K+] (stereo not given) [Hydroxycitrate]", "MV4-11", "> 10 µM"],
  ["COc1ccc2c(NC(=O)Nc3cccc(C(F)(F)F)n3)ccnc2c1", "MV4-11", "> 10 µM"],
  ["Cc1c2c(=O)n(-c3ccccc3Cl)[nH]c2cc(=O)n1Cc1ccccn1", "MV4-11", "7.5 µM"],
  ["CC/C=C\\C[C@H]1C(=O)CC[C@@H]1CC(=O)OC [Methyl jasmonate]", "MV4-11", "> 10 µM"],
  ["N[C@@H](CC(=O)N1CCn2c(nnc2C(F)(F)F)C1)Cc1cc(F)c(F)cc1F", "MV4-11", "> 10 µM"],
  ["O=C(NCCN1CCC(n2c(O)nc3ccccc32)CC1)c1cc2cc(F)ccc2[nH]1", "MV4-11", "> 10 µM"],
  ["CN1CCN(CCCN2c3ccccc3Sc3ccc(C(F)(F)F)cc32)CC1", "MV4-11", "9.52 µM"],
  ["N#C/C(=C\\c1ccc(O)cc1)C(=O)O [alpha-cyano-4-hydroxycinnamic acid]", "MV4-11", "> 10 µM"],
  ["CCn1c(=Cc2cccc[n+]2CC)sc(=C2Sc3ccccc3N2C)c1=O", "MV4-11", "3.37 µM"],
  ["c1cc(-c2cnn3cc(-c4ccc(OCCN5CCCCC5)cc4)cnc23)ccn1", "MV4-11", "> 10 µM"]
]}

---

- System: HL-60
- ASSAY_PROTOCOL: cell viability (% survival relative to DMSO control); higher = less cytotoxic
- MEASUREMENT_SETUP: 0.01 µM; 72 h; co-treatment: DMSO vehicle

{"columns": ["SMILES_REPRESENTATION", "SYSTEM", "cell viability [%]"],
 "data": [
  ["CCCCCOC(=O)Nc1nc(=O)n([C@@H]2O[C@H](C)[C@@H](O)[C@H]2O)cc1F", "HL-60", 100],
  ["O=C(/C=C/c1ccc(O)c(O)c1)OCCc1ccccc1", "HL-60", 95.8],
  ["CCc1c(C(=O)C(N)=O)c2c(OCC(=O)O)cccc2n1Cc1ccccc1", "HL-60", 95.7],
  ["CCN(CC)C(=S)SSC(=S)N(CC)CC", "HL-60", 100]
]}
